# test protocol: Primary qHTS for inhibitors of nuclear receptor binding SET domain protein 2 (NSD2) in an RCH-ACV wild type WT cells (2C) (AID 1645877); note: nearly all actives have a fitted effect of over 70% in size
# experimental setup: RCH-ACV (leukaemia line) NSD2 WT (2C) viability, CellTiter-Glo, 72 h; series mostly up to 44.9 µM
Inconclusive results are not listed. Activity calls are given as the source filed them. Calls come from the whole dose curve; as a rule, active = well fitted inhibition curve with a large enough effect; inconclusive = small, poorly fitted or top-dose-only effect; inactive = no such curve, though single readings can be large or run the other way.
Labels: active, inactive

molecule: O=C(NCCS(=O)(=O)c1ccc(C(F)(F)F)cn1)c1ccc(Cl)cc1
cat: inactive
--
molecule: NC1(Cc2ccc(Cl)cc2)CCN(c2ncnc3[nH]ccc23)CC1
cat: active
--
molecule: CC(C)(C)OC(=O)Nc1ccc(-c2cc(C(=O)NCCCCCCC(=O)NO)no2)cc1
cat: active
--
molecule: O=c1[nH]c(=O)n(C2CCCO2)cc1F (stereo unspecified)
cat: inactive
--
molecule: COc1cc(OC2CCN(C)CC2)ccc1Nc1ncc2c(n1)n(C1CCCC1)c(=O)n2C
cat: active
--
molecule: O=C(NCCCNc1nc(Nc2cccc(NC(=O)N3CCCC3)c2)ncc1I)c1cccs1
cat: active

====

# Tested on: SKOV3
# test protocol: Primary qHTS to identify gynecologic anti-cancer compounds using libraries of approved drugs and bioactive compounds (AID 1345084); note: nearly all actives have a fitted effect of over 55% in size
# experimental setup: Gynecologic cancer cell panel viability, ATPlite luminescence, 48 h; series mostly up to 57.5 µM
Records with an inconclusive call do not appear. Active and inactive are the calls of the source. Calls come from the whole dose curve; as a rule, active = well fitted cell-killing curve with a large enough effect; inconclusive = small, poorly fitted or top-dose-only effect, or effect the other way; inactive = flat fitted curve, though single readings scatter.
Classes used: active, inactive

substance smiles: Cc1cn2cc(C(=O)N(C)CCO)cc(N[C@@H]3CCOc4cccc(C)c43)c2n1
cat: inactive

substance smiles: CC(C)c1nn(-c2c(Cl)cccc2Cl)c2nc(Cc3ccc(OCCO)cc3)[nH]c(=O)c12
cat: active

substance smiles: COc1cc2c(Nc3ccc(NC(=O)c4ccccc4)cc3)ncnc2cc1OCCCN1CCOCC1
cat: active

substance smiles: COc1cc(C(=O)N2CCC(N3CCN(C)CC3)CC2)ccc1Nc1ncc2c(n1)N(C)c1ccccc1C(=O)N2C
cat: active

substance smiles: C[C@@H]1COC(Nc2ccc3ncnc(Nc4ccc(OCc5nccs5)c(Cl)c4)c3c2)=N1
cat: active

substance smiles: Cc1ccc(NC(=O)C2(c3ccc4c(c3)OC(F)(F)O4)CC2)nc1-c1cccc(C(=O)O)c1
cat: inactive

====

# Test system: UISO
# test protocol: qHTS assay to identify novel small-molecules to repurpose for Merkel cell carcinoma treatment (AID 1296009); note: nearly all actives have a fitted effect of over 60% in size
# experimental setup: MCC and control cell lines, CellTiter-Glo viability, 72 h; series mostly up to 46 µM
Records with an inconclusive call do not appear. Calls of active or inactive are those of the source. Calls come from the whole dose curve; as a rule, active = well fitted inhibition curve with a large enough effect; inconclusive = small, poorly fitted or top-dose-only effect; inactive = flat fitted curve, though single readings scatter.
Labels: active, inactive

compound: CC(C)c1cc(-c2n[nH]c(=O)n2-c2ccc3c(ccn3C)c2)c(O)cc1O
cat: active
--
compound: COc1ccc(C(=O)CC2(O)C(=O)Nc3c(Cl)ccc(Cl)c32)cc1 (configuration not stated)
cat: active
--
compound: Clc1cccc(-c2nnnn2Cc2cccnc2)c1Cl
cat: inactive
--
compound: CN(C)CC=CC(=O)Nc1cc2c(Nc3ccc(F)c(Cl)c3)ncnc2cc1O[C@H]1CCOC1
cat: active
--
compound: CC1COC2(CCN(c3nc(=O)c4cc(C(F)(F)F)cc([N+](=O)[O-])c4s3)CC2)O1 (configuration not stated)
cat: inactive
--
compound: CC(C)Nc1cc(C(F)(F)F)cc2nc(NC(=O)c3cccnc3)nn12
cat: inactive
--
compound: CCCNC(=O)Nc1ccc(Oc2ncnc3cc(OC)c(OC)cc23)cc1Cl
cat: inactive
--
compound: CN(c1ncccc1CNc1nc(Nc2ccc3c(c2)CC(=O)N3)ncc1C(F)(F)F)S(C)(=O)=O
cat: active
--
compound: CC(C)(C)c1cnc(CSc2cnc(NC(=O)C3CCNCC3)s2)o1
cat: active
--
compound: CC(C)(C)c1cc(NC(=O)Nc2ccc(-c3cn4c(n3)sc3cc(OCCN5CCOCC5)ccc34)cc2)no1
cat: inactive
--
compound: CC(C)c1cc(C(=O)N2Cc3ccc(CN4CCN(C)CC4)cc3C2)c(O)cc1O
cat: active
--
compound: C=CC(=O)Nc1cc2c(Nc3ccc(F)c(Cl)c3)ncnc2cc1C#CC(C)(C)N1CCN(C)CC1
cat: active
--
compound: CCCCCN(CCC12CC3CC(CC(C3)C1)C2)C(=O)NCCCc1ccncc1
cat: inactive
--
compound: Nc1ccccc1NC(=O)c1ccc(CNc2nccc(-c3cccnc3)n2)cc1
cat: active
--
compound: Cc1cc(Nc2ncnc3ccc(-c4ccc(CNCCS(C)(=O)=O)o4)cc23)ccc1Oc1ccn2ncnc2c1
cat: active
--
compound: O=C(O)c1ccc2cc(-c3ccc(O)c(C45CC6CC(CC(C6)C4)C5)c3)ccc2c1
cat: active
--
compound: COC(=O)C[C@](O)(CCCC(C)(C)O)C(=O)O[C@@H]1C(OC)=C[C@]23CCCN2CCc2cc4c(cc2[C@H]13)OCO4
cat: inactive
--
compound: CC(C)c1ccc(Cn2ccc3c4c(N)nc(NC5CC5)nc4ccc32)cc1
cat: active
--
compound: COC(=O)Nc1ccc(-c2nc(N3CCOCC3)c3cnn(C4CCN(Cc5cccnc5)CC4)c3n2)cc1
cat: active
--
compound: Clc1cccc(-n2nnnc2NCc2ccccc2Oc2ccccn2)c1Cl
cat: inactive
--
compound: O=C(O)c1ccc2c(c1)nc(Nc1cccc(Cl)c1)c1ccncc12
cat: active
--
compound: O=C(O)CCCc1c[nH]c2ccccc12
cat: inactive
